assay: soluble on expression in E. coli; label from the status in PepcDB or PDB records
Parameter Measured: soluble on expression in E. coli

{"columns": ["Chain", "Parameter Measured", "Result Value"],
 "data": [
  ["QHPAFMTEMPTDGKYQDTIEALQSMKYDKEDDEDKQMNAEHHKEEGNKHFKFKKYRWATDCYSNGIKENSPDRKLNAVLYFNRAAAQKHLGNLRSAIKDCSMGRKFDPTHLKGVIRGAECLLELEYAKDALNWIESSKKIFAFTKETSDTPDLTDDEKKFIDQLETLRVKSVELSLKEERDKRKSRAEERKETESKKQLLDALKERNLNLCPRVPFDRPELMDMARLTVSLPLMHSHECVKFDDDLNLVWPILLQYPEAGQTDVLTETNELTTVGELLKEVLNSPAQWDPEHKFNFENVRFFVSDEYDEYLMEVYEWNDFKSVLSMPGYQIKQGLPVIMIMTKEKAASSLEALAEDENRYVAK", "soluble on expression in E. coli", "not soluble"],
  ["MGSDKIHHHHHHMSRAITRAQLDKLVRSITKFYPQKYADKSWDNTGLLIDCSTAQVTTADANAKTKVLLTVDLTKSVAQEAVDANCNVIVAYHPFIFPSWNRLSPHTNPQHETAIKLIQYGISVYCPHTAVDAARGGVNDWLVRGLNNGENVAKSYALETVSGETDDLIGYGRFVEFNKDISLEQIVKNVKRVLRVPYVQVASLAAPSAWNQLKIKKVAVCAGSGSGVFKQLKEDVDLYYTGEMSHHEVLKWKEMGKTVIVCNHSNTERGFLQDVMKGLLQDEGHEVVVSKMDCDPLTVA", "soluble on expression in E. coli", "not soluble"],
  ["MFRIGQGFDVHEFAEGRPLIIGGITIPHEKGLIGHSDADVLLHTIADACLGAIAAGDIGKHFPDTDPAFKDADSAVLLQKVWEFVREQGYELGNLDCTIIAQKPKMAPHIESMRKRISELLETSIDNINVKATTTEKLGFTGREEGIASQAVVLLQKK", "soluble on expression in E. coli", "not soluble"]
]}

====

assay: soluble on expression in E. coli; label from the status in PepcDB or PDB records

{"columns": ["Chain", "soluble on expression in E. coli"],
 "data": [
  ["MDMSLAEDAQETMATLAPDRFFFMSPYRSFTTSGCFARYTEPAVAGDSPDSPFQQKLRQQFAEAKSQGIANPILVGAIPFDTRQPSSLFIPMAWQSFSRQQKQRTARYFTDHQSLTVTARKAIPEQDAFEAMVARAAMLTATPDVDKVVLSRLIDITTDVAVDSGALLERLVAQNPVSYNFHVPLADGGVLLGASPELLLRKEGERFSSLPLAGSARRQPDDVLDREAGNRLLASQKDRHEHELVTQAMKQILRDRSTELQLPSSPQLITTPTLWHLGTPFEGKANAGENALTLACLLHPTPALSGFPHQVAKKLIAELEPFDRELFGGIVGWCDAEGNGEWVVTIRCAKLHGNQVRLFAGAGIVPASSPVGEWRETGVKLSTMLNVFGLH", "soluble"],
  ["MNSRIETFHQMEWHFFSLISMELLSLEGLKACNSGMPIPALNPVFYSGKSTLLVAEIYQCKRFYESHSVPWALMVPDYLSDTKTDNVLAQSGFLSIDQGVAMYLSIQDLGMPGFKSDLLIKRMDNEMETWILPTIPAFESTAEIAKIYRVRHQEAIEKSSDIYHFSGFIQEQIVCSLTLTVMGDCARIDDVATFPKYQKNGYATQLILSELQILKDTNISWCFLEASADGLNIYKKIGFRELFKNLYYEEQYHYEQN", "not soluble"],
  ["MGSDKIHHHHHHMTAQNGQDVWHEDILDDSAIAVLSYPIGEMQRDQLHSHGYHQIAMCEQPGATLLLGSQVVSIPWNGALLVPSGTDHALTSETRCVIRCIYFKAALPSTSIGSLFLNRLTKELIKEISTSYVTERSRRLMEACLYDQIGQLLWSSGSGMMPPSRSLRVICKHIFDTPEDDTPVATLAKDAGLSERSLRRLARDELGCTISQIRTRCRIYKATQLLQAGVPVKLIAADVGYQSNSAFFSAFREIMGMSPARFQAECAASRSLSHLRLK", "not soluble"],
  ["SAKFSKQSWGLENEALIVRCPRQGKPSYTVDWYYSQTNKSIPTQERNRVFASGQLLKFLPAAVADSGIYTCIVRSPTFNRTGYANVTIYKKQSDCNVPDYLMYSTVSGSEKNSKIYCPTIDLYNWTAPLEWFKNCQALQGSRYRAHKSFLVIDNVMTEDAGDYTCKFIHNENGANYSVTATRSFTVKDEQGFSLFPVIGAPAQNEIKEVEIGKNANLTCSACFGKGTQFLAAVLWQLNGTKITDFGEPRIQQEEGQNQSFSNGLACLDMVLRIADVKEEDLLLQYDCLALNLHGLRRHTVRLSRKNPSKECF", "soluble"],
  ["MGSDKIHHHHHHMLDNSIPTDSCLVSGATVSTDIETLYCNHHDWLQVWLRRRLSSAVDASDLAHDTFVRVLVSGRMPNAEQSRAFLTQIAKGLAVDLYRRRAIEEAYLAALAQLPENLAPSAEERVLALQVLLLLDTALGSLPSRVREVFLLSRLDGLTYSDIAQRRGISVATVRKYMLRAAQACHCVLNSPTGTAP", "not soluble"]
]}

Source of measurements: the DeepSol protein solubility set
